# Test system: HepG2 cells
# assay summary: Mitochondrial membrane potential (MITO-ID MP detection Kit)
# Assay type: cell-based
# setup conditions: Homo sapiens, 168 h, 10 uM, 7 days, read-out: % decrease in Mitochondrial Membrane Potential
Below, each entry is listed alongside its reported inhibition at 10 µM.
recorded endpoint: inhibition at 10 µM

>  <molecule>
CSCCNC(=O)CCNC(=O)[C@H](O)C(C)(C)CO

>  <result>
> 50%

$$$$
>  <molecule>
COC(=O)C[C@H](N)C(=O)SCCNC(=O)CCNC(=O)[C@H](O)C(C)(C)CO

>  <result>
> 20%

$$$$
>  <molecule>
COC(=O)CCC(=O)SCCNC(=O)CCNC(=O)[C@H](O)C(C)(C)COP1(=O)OCCO1

>  <result>
> 50%

$$$$
>  <molecule>
CC(C)(CO)[C@@H](O)C(=O)NCCC(=O)NCCSC(=O)C1CCC(=O)N1 (stereo partly drawn)

>  <result>
> 30%

$$$$
>  <molecule>
COC(=O)CCC(=O)SCCNC(=O)CCNC(=O)[C@H](O)C(C)(C)CO

>  <result>
> 30%

$$$$
>  <molecule>
CC(C)(CO)[C@@H](O)C(=O)NCCC(=O)NCCSC(=O)C(O)CO (stereo partly drawn)

>  <result>
> 30%

$$$$

Measured values drawn from patent US20230107216A1 for this set.
